Would you mind telling me the reported TI = CC50/EC50 of each entry?
Tested on: HUVEC
TEST_SUMMARY: Cytotoxicity to HUVEC (MTS)
Type: cell-based, Human
TEST_SETTINGS: HUVEC

Task item: Report TI = CC50/EC50 for Cc1[nH]c(/C=C2\C(=O)Nc3ccc(F)cc32)c(C)c1NC(=O)C1CCCN(C(=O)N2CCCC2)C1 (stereo not shown)
Reply: >1534

Task item: Report TI = CC50/EC50 for `Cc1[nH]c(/C=C2\C(=O)Nc3ccc(F)cc32)c(C)c1NC(=O)C1CCN(C(=O)N(C)C)CC1`
Reply: >1456

Task item: Report TI = CC50/EC50 for `Cc1[nH]c(/C=C2\C(=O)Nc3ccc(F)cc32)c(C)c1NC(=O)C1CCN(C(=O)N2CCCC2)CC1`
Reply: >1436

Task item: Report TI = CC50/EC50 for `Cc1[nH]c(/C=C2\C(=O)Nc3ccc(F)cc32)c(C)c1NC(=O)C1CCNCC1`
Reply: >1238
